# Target: ATP-binding cassette sub-family C member 3 (Homo sapiens, UniProt O15438)
# Sequence (O15438 whole entry): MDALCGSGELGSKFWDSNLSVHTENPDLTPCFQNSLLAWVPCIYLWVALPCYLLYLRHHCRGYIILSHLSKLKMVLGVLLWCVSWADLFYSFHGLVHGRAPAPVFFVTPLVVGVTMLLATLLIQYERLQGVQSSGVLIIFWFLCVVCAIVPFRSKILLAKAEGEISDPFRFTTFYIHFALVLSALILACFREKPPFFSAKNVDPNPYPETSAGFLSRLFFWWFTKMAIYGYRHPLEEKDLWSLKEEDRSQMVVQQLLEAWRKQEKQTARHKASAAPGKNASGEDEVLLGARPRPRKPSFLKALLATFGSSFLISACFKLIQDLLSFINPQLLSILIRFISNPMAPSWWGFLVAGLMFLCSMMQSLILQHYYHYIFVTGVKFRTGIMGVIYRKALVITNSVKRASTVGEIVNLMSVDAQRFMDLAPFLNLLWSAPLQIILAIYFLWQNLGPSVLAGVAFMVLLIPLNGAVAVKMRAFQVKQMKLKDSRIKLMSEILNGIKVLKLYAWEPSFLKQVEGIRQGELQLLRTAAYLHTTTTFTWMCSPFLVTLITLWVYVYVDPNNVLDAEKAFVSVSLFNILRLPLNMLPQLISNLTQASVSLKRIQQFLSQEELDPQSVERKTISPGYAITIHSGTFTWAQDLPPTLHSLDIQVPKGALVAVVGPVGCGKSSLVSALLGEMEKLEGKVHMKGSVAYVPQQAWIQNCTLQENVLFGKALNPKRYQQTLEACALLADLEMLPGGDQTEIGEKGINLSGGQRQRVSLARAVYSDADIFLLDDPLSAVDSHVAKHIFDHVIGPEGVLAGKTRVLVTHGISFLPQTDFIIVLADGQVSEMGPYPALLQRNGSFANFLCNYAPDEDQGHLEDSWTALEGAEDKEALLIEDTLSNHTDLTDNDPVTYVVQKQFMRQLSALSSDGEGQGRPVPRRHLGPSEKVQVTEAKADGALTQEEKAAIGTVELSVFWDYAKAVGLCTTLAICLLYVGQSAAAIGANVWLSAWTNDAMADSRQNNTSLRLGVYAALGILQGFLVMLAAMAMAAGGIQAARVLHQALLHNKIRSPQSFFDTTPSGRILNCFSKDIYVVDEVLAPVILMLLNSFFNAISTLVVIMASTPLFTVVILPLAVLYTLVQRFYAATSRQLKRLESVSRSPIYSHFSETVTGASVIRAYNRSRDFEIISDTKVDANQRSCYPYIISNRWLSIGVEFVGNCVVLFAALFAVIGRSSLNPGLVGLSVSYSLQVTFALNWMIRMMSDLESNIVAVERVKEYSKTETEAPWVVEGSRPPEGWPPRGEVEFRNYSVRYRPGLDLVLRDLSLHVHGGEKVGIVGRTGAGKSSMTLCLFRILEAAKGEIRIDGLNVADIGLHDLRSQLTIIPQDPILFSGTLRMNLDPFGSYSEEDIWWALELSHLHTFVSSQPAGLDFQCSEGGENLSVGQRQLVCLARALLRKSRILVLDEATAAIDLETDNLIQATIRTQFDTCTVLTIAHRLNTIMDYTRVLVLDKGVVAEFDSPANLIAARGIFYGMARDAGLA
# Assay text: Inhibition of recombinant human ABCC3 expressed in baculovirus infected insect Sf21 cell plasma membrane vesicles assessed as inhibition of transporter-mediated [3H]-estradiol-17beta-glucuronide uptake by liquid scintillation counting analysis
# Format: ADME
Observed property: inhibition (INH)

INSERT INTO assay_data (smiles_record, observed_property, value_observed) VALUES
  ('CO[C@@]1(NC(=O)Cc2cccs2)C(=O)N2C(C(=O)O)=C(COC(N)=O)CS[C@@H]21', 'inhibition (INH)', 'Active'),
  ('CC1=C(C(=O)O)N2C(=O)[C@@H](NC(=O)[C@H](N)C3=CCC=CC3)[C@H]2SC1', 'inhibition (INH)', 'Active'),
  ('CO/N=C(\C(=O)N[C@@H]1C(=O)N2C(C(=O)O)=C(CSc3nc(=O)c(=O)[nH]n3C)CS[C@H]12)c1csc(N)n1', 'inhibition (INH)', 'Active'),
  ('CCN1CCN(C(=O)N[C@@H](C(=O)N[C@@H]2C(=O)N3C(C(=O)O)=C(CSc4nnnn4C)CS[C@H]23)c2ccc(O)cc2)C(=O)C1=O', 'inhibition (INH)', 'Active');
